System: Wnt-5a antisense HB2 cells
Assay: Adhesion of Wnt-5a antisense HB2 cells to collagen I (MTS)
Assay type: cell-based, human
Conditions: 95% pure peptides, different concentrations
MEASUREMENT LABEL: adhesion to collagen I, concentration-dependent analysis

SEQUENCE CONTENT	RESULT
VKAKKATEIVDQFVA [compound 170, Wnt-5a aa 350-364; the 3 cysteines exchanged to alanines]	lost or less consistent
SQLAGLSQGQKKL [peptide 171, Wnt-5a aa 55-67; negative control]	lost or less consistent
